Exercise: for every item that follows, state its recorded bioavailability.
# experiment description: Oral bioavailability in Sprague-Dawley rat at 10 mg/kg
# Type: ADME, organism-based
# conditions used: in vivo

Query: Return value of bioavailability for input "CC(C)(C)c1cc(NC(=O)NCc2ccc(-c3cc(NC(=O)c4ccc(OCCN5CCOCC5)cc4)[nH]n3)cc2)no1" , no commentary.
Result: 1%

Query: Tell me its bioavailability given "Cc1cc(-c2cc(NC(=O)c3ccc(OCCN4CCOCC4)cc3)[nH]n2)ccc1NC(=O)Nc1cc(C(C)(C)C)on1" as the entry.
Result: 4%

----------
Give measured IC50 for each item. Keep answers brief.
Target protein (sequence): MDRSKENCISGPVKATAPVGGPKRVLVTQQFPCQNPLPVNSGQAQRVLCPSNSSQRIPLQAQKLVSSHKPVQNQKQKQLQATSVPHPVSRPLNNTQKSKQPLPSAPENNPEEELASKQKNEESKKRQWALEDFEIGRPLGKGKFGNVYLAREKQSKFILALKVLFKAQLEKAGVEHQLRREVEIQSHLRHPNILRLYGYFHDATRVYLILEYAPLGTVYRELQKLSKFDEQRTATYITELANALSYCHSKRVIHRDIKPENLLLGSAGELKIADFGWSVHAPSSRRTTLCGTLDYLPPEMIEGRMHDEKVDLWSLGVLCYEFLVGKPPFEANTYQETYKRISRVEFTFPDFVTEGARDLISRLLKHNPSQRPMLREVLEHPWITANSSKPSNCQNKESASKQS
Expressed in nM, but write only the number.

Query: Return value of IC50 for input "Cc1cc(NC(=O)Nc2ccc(-c3cc(NC(=O)c4ccc(N5CCN(C)CC5)cc4)[nH]n3)cc2C)no1" , no commentary.
Result: 250

Query: Read off the recorded IC50 for "CN1CCN(c2ccc(C(=O)Nc3cc(-c4ccc(NC(=O)Nc5ccccc5)cc4)n[nH]3)cc2)CC1"
Result: 330

Query: For the compound "CC(C)(C)c1cc(NC(=O)Nc2ccc(-c3cc(NC(=O)c4ccc(OCCN5CCOCC5)cc4)[nH]n3)cc2)no1" , give its measured IC50 value.
Result: 160

Query: # return recorded IC50 for entry "Cc1nc(Nc2cc(-c3ccc(CNC(=O)Nc4cc(C)on4)cc3)n[nH]2)cc(N2CCN(C)CC2)n1"
Result: 320

Query: Tell us which IC50 value is on record for "Cc1cc(NC(=O)NCc2ccc(-c3cc(NC(=O)c4ccc(N5CCN(C)CC5)cc4)[nH]n3)cc2)no1"
Result: 940

Query: Output IC50 of "Cc1nc(Nc2cc(-c3ccc(NC(=O)Nc4ccccc4)cc3)n[nH]2)cc(N2CCN(C)CC2)n1"
Result: 500

----------
# experiment description: Half life in Sprague-Dawley rat at 2 mg/kg, iv
# Assay type: ADME, organism-based
# Parameters: dose 2 mg/kg, route intravenous
# conditions used: in vivo
For each entry below, report its half-life value.
Field format: number, assumed h, no unit text.

Query: Let me know recorded half-life for "CC(C)(C)c1cc(NC(=O)NCc2ccc(-c3cc(NC(=O)c4ccc(OCCN5CCOCC5)cc4)[nH]n3)cc2)no1" , thanks.
Result: 6.2

Query: Give the reported value of half-life for this record: "CN1CCN(Cc2ccc(C(=O)Nc3cc(-c4ccc(CNC(=O)Nc5cc(C(C)(C)C)on5)cc4)n[nH]3)cc2)CC1"
Result: 11

Query: Indicate its recorded half-life; the compound in question is "Cc1cc(-c2cc(NC(=O)c3ccc(CN4CCN(C)CC4)cc3)[nH]n2)ccc1NC(=O)Nc1cc(C(C)(C)C)on1"
Result: 17

Query: Please give the documented half-life of "Cc1cc(-c2cc(NC(=O)c3ccc(OCCN4CCOCC4)cc3)[nH]n2)ccc1NC(=O)Nc1cc(C(C)(C)C)on1"
Result: 5.3
